Molecular target: CCR2 (Homo sapiens, UniProt P41597)
Sequence (P41597 1-360 isoform P41597-2): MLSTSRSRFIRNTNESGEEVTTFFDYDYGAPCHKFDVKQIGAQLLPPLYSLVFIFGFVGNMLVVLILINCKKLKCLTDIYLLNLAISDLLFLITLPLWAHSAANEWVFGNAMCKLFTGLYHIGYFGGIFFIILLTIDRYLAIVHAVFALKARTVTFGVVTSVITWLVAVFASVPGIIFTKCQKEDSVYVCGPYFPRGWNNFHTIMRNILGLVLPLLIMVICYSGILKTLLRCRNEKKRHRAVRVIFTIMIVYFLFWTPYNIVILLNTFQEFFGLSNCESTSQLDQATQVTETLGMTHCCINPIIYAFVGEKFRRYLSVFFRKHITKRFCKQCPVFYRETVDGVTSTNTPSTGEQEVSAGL
MEASURED ENDPOINT: pIC50
Scale: negative log10 of molar concentration, which is what pIC50 denotes.

Please review the following examples before continuing.
INSERT INTO measurements (compound, reported_value) VALUES
  ('O=C(/C=C/c1cc(F)cc(F)c1)N1CCC(C(CO)N2CCC(c3c[nH]c4ccc(F)cc34)CC2)CC1 (stereo not shown) [Cpd 171]', 8.35),
  ('O=CNCC(C1CCN(C(=O)Nc2ccc(Cl)c(Cl)c2)CC1)N1CCC(c2c[nH]c3ccccc23)CC1 (stereo not shown) [Cpd 226]', 5.68),
  ('O=C(/C=C/c1cc(F)cc(F)c1)N1CCC(C(CO)N2CCC(c3nc4ccccc4[nH]3)CC2)CC1 (stereo not shown) [Cpd 174]', 6.82),
  ('CCNC(=O)NCC(C1CCN(C(=O)/C=C/c2cc(F)c(F)c(F)c2)CC1)N1CCC(c2c[nH]c3ccccc23)CC1 (stereo not shown) [Cpd 228]', 5.62),
  ('O=C(O)C(C1CCN(C(=O)Nc2cc(Cl)c(Cl)cc2Cl)CC1)N1CCC(c2c[nH]c3ccccc23)CC1 (stereo not shown) [Cpd 126]', 5.68),
  ('O=C(C=Cc1cc(F)c(F)c(F)c1)N1CCC(C(CO)N2CCC(c3ccc(Cl)cc3)CC2)CC1 (stereo not shown) [Cpd 246]', 7.15);

# evaluate next
# input Report pIC50, nothing else, for this compound: Nc1ccc2[nH]cc(C3CCN(C(C(=O)O)C4CCN(C(=O)/C=C/c5cc(F)c(F)c(F)c5)CC4)CC3)c2n1 (stereo not shown) [Cpd 178]
# output 7.05

----------
Listed next: entries and their corresponding pIC50.
Molecular target: CCR2 (Homo sapiens)
Settings: Inhibition of MCP-1 Binding IC50, 125I labeled MCP-1 binding to CCR2, THP-1 cells
Scale: negative log10 of molar concentration, which is what pIC50 denotes.

Please review the following examples before continuing.
INSERT INTO results (compound, measured_endpoint, reported_value) VALUES
  ('O=C(/C=C/c1ccc(F)c(F)c1)N1CCC(C(CO)N2CCC(c3c[nH]c4ccccc34)CC2)CC1 (stereo not drawn) [Cpd 113]', 'pIC50', 8.22),
  ('O=C(/C=C/c1cc(F)c(F)c(F)c1)N1CCC(C(CO)N2CCC(c3c[nH]c4ccc(F)cc34)CC2)CC1 (stereo not drawn) [Cpd 170]', 'pIC50', 7.40);

# evaluate next
# input Please respond with reported pIC50 (system CCR2 (Homo sapiens)) for NC(=O)C(C1CCN(C(=O)/C=C/c2cc(F)c(F)c(F)c2)CC1)N1CCC(c2c[nH]c3ncccc23)CC1 (stereo not drawn) [Cpd 227] .
# output 6.02

----------
Test system: THP-1 cells
Conditions: Homo sapiens, THP-1, read-out: Inhibition of MCP-1 Induced Calcium Ion Influx, percent inhibition
The label depends only on inhibition at 25 µM: Y if it is at least 50%, N if it is smaller.

Past entries and their recorded results:
INSERT INTO results (compound, assayed_system, class_label) VALUES
  ('CC(=O)NCC(C1CCN(C(=O)/C=C/c2ccsc2)CC1)N1CCC(c2c[nH]c3ccccc23)CC1 (centres unmarked)', 'THP-1 cells', 'Y'),
  ('COc1ccc(C2CCN(C(CO)C3CCN(C(=O)c4cc5cc(Cl)ccc5o4)CC3)CC2)cc1 (centres unmarked)', 'THP-1 cells', 'N'),
  ('O=C(/C=C/c1cc(F)cc(F)c1)N1CCC(C(CO)N2CCC(c3c[nH]c4ccc(O)cc34)CC2)CC1 (centres unmarked)', 'THP-1 cells', 'Y');

Here is another compound to look at.
# input Determine whether measured inhibition at 25 µM meets or exceeds 50% for O=C(/C=C/c1cccc(C(F)(F)F)c1)N1CCC(C(CO)N2CCC(c3ccncc3)CC2)CC1 (centres unmarked)
# output N

----------
Target: UniProt:P41597
So basically: is IC50 under 0.4 µM? Then Fulfilled. Not under? Then Not fulfilled.

INSERT INTO measurements (molecule, class_label) VALUES
  ('O=C(/C=C/c1cc(F)c(F)c(F)c1)N1CCC(C(CO)N2CCC(c3nccs3)CC2)CC1 (stereo not shown) [Cpd 195]', 'Not fulfilled');

Here is another molecule to look at.
# input Say whether its IC50 is strictly beneath 0.4 µM. Entry: O=C(/C=C/c1cc(F)c(F)c(F)c1)N1CCC(C(CO)N2CCC(c3nc4ccccc4[nH]3)CC2)CC1 (stereo not shown) [Cpd 175]
# output Fulfilled

----------
Target: CCR2 (Homo sapiens, UniProt P41597)
Settings: read-out: Inhibition of MCP-1 Binding, percent inhibition
MEASURED ENDPOINT: inhibition at 25 µM (%)
Note: unit % is implicit; provide only the numeric part.

INSERT INTO measurements (compound, assayed_system, reported_value) VALUES
  ('O=C(/C=C/c1ccc(C(F)(F)F)cc1)N1CCC(C(CCl)N2CCC(c3ccc(Cl)cc3)CC2)CC1 (stereo not drawn)', 'CCR2 (Homo sapiens, UniProt P41597)', 53),
  ('COC(=O)NCC(C1CCN(C(=O)/C=C/c2cccc(C)c2)CC1)N1CCC(c2c[nH]c3ccccc23)CC1 (stereo not drawn)', 'CCR2 (Homo sapiens, UniProt P41597)', 58),
  ('O=C(C1CC1c1ccc(Cl)c(Cl)c1)N1CCC(C(CO)N2CCC(c3c[nH]c4ccccc34)CC2)CC1 (stereo not drawn)', 'CCR2 (Homo sapiens, UniProt P41597)', 58),
  ('COc1ccc(C2CCN(C(CO)C3CCN(C(=O)c4cc5cc(Cl)ccc5o4)CC3)CC2)cc1 (stereo not drawn)', 'CCR2 (Homo sapiens, UniProt P41597)', 56),
  ('O=CNCC(C1CCN(C(=O)/C=C/c2cccc(C(F)(F)F)c2)CC1)N1CCC(c2c[nH]c3ccccc23)CC1 (stereo not drawn)', 'CCR2 (Homo sapiens, UniProt P41597)', 54);

# evaluate next
# input Report inhibition at 25 µM, nothing else, for this compound: CS(=O)(=O)Nc1ccc(C2CCN(C(CO)C3CCN(C(=O)/C=C/c4cc(F)c(F)c(F)c4)CC3)CC2)cc1 (stereo not drawn)
# output 52

----------
Target: CCR2 (Homo sapiens)
MEASURED ENDPOINT: IC50 (nM)
Note: unit nM is implicit; provide only the numeric part.

INSERT INTO measurements (molecule, reported_value) VALUES
  ('O=C(Nc1cc(F)cc(F)c1)N1CCC(C(CO)N2CCC(c3c[nH]c4ccccc34)CC2)CC1 (stereo not drawn)', 40),
  ('COc1cccc2c(C3CCN(C(CO)C4CCN(C(=O)/C=C/c5cc(F)c(F)c(F)c5)CC4)CC3)c[nH]c12 (stereo not drawn)', 10);

# input Please respond with reported IC50 (system CCR2 (Homo sapiens)) for O=C(O)c1ccc2[nH]cc(C3CCN(C(C(=O)O)C4CCN(C(=O)/C=C/c5cc(F)c(F)c(F)c5)CC4)CC3)c2c1 (stereo not drawn) .
# output 150

# input Please respond with reported IC50 (system CCR2 (Homo sapiens)) for O=C(/C=C/c1ccc(Cl)c(Cl)c1)N1CCC(C(CO)N2CCC(c3nccs3)CC2)CC1 (stereo not drawn) .
# output 5700

# input Please respond with reported IC50 (system CCR2 (Homo sapiens)) for O=C(O)C(C1CCN(C(=O)Nc2ccc(F)cc2)CC1)N1CCC(c2c[nH]c3ccccc23)CC1 (stereo not drawn) .
# output 480

# input Please respond with reported IC50 (system CCR2 (Homo sapiens)) for O=C(O)C(C1CCN(C(=O)Nc2cc(C(F)(F)F)cc(C(F)(F)F)c2)CC1)N1CCC(c2c[nH]c3ccccc23)CC1 (stereo not drawn) .
# output 80

----------
Listed next: entries and their corresponding log10 IC50.
Molecular target: UniProt P41597
Sequence (P41597 1-360 isoform P41597-2): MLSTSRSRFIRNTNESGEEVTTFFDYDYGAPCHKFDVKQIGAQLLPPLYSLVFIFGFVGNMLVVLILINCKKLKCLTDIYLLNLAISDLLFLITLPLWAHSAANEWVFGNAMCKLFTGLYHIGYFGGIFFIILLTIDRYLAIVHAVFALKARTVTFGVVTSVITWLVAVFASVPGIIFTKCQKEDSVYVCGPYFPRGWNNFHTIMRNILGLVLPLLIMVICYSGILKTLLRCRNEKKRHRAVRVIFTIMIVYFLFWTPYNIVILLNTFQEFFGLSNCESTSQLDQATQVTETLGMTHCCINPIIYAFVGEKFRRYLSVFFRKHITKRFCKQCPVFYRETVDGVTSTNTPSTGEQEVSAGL
A difference of one corresponds to tenfold IC50; all values are log10 with IC50 in nM.

# input Report log10 IC50, nothing else, for this compound: O=C(O)C(C1CCN(C(=O)Nc2ccc(SC(F)(F)F)cc2)CC1)N1CCC(c2c[nH]c3ccccc23)CC1 (stereo not drawn) [Cpd 142]
# output 0.70

# input Report log10 IC50, nothing else, for this compound: O=C(O)C(C1CCN(C(=O)/C=C/c2ccc(C(F)(F)F)c(F)c2)CC1)N1CCC(c2c[nH]c3ccccc23)CC1 (stereo not drawn) [Cpd 75]
# output 0.60

# input Report log10 IC50, nothing else, for this compound: O=C(O)C(C1CCN(C(=S)Nc2ccccc2)CC1)N1CCC(c2c[nH]c3ccccc23)CC1 (stereo not drawn) [Cpd 43]
# output 3.04

# input Report log10 IC50, nothing else, for this compound: CC(=O)NCC(C1CCN(C(=O)Nc2ccc(Cl)c(Cl)c2)CC1)N1CCC(c2c[nH]c3ccccc23)CC1 (stereo not drawn) [Cpd 217]
# output 2.32

# input Report log10 IC50, nothing else, for this compound: CC(=O)OCC(C1CCN(C(=O)OC(C)(C)C)CC1)N1CCC(c2c[nH]c3ccccc23)CC1 (stereo not drawn) [Cpd 234]
# output 4.05

# input Report log10 IC50, nothing else, for this compound: O=C(O)C(C1CCN(C(=O)Nc2ccc(Cl)cc2F)CC1)N1CCC(c2c[nH]c3ccccc23)CC1 (stereo not drawn) [Cpd 117]
# output 3.00

# input Report log10 IC50, nothing else, for this compound: CC(=O)NCC(C1CCN(C(=O)/C=C/c2ccsc2)CC1)N1CCC(c2c[nH]c3ccccc23)CC1 (stereo not drawn) [Cpd 219]
# output 2.53

# input Report log10 IC50, nothing else, for this compound: O=C(O)C(C1CCN(C(=O)/C=C/c2cc(F)cc(F)c2)CC1)N1CCC(c2n[nH]c3ccccc23)CC1 (stereo not drawn) [Cpd 177]
# output 3.48

# input Report log10 IC50, nothing else, for this compound: COC(=O)C(C1CCN(C(=O)/C=C/c2cc(F)cc(F)c2)CC1)N1CCC(c2ccc(OC)cc2)CC1 (stereo not drawn) [Cpd 3]
# output 3.58

# input Report log10 IC50, nothing else, for this compound: O=C(/C=C/c1ccc(Cl)c(Cl)c1)N1CCC(C(CCl)N2CCC(c3ccc(Cl)cc3)CC2)CC1 (stereo not drawn) [Cpd 245]
# output 3.34
